What follows is literature data on IC50 for ROCK2 (Homo sapiens).
readout-label: IC50

[[record]]
compound = "[H][C@]1(c2n[nH]c(=O)c3ccccc32)C[C@@]2(C[C@H](NC(=O)c3cnc4cc(N5CC[C@H](F)C5)ccn34)C2)C1 (stereo partly drawn)"
target_system = "ROCK2 (Homo sapiens)"
readout_label = "IC50"
measured = "0.2 to 2 nM"

[[record]]
compound = "COc1cc(F)c2c(c1)NC1(CCN(c3ccc(-c4cn[nH]c4)cc3)C1=O)C2 (racemic)"
target_system = "ROCK2 (Homo sapiens)"
readout_label = "IC50"
measured = "< 3 nM"

[[record]]
compound = "COc1cc(F)cc(CNC(=O)N2CCc3cc(-c4cn[nH]c4)ccc32)c1"
target_system = "ROCK2 (Homo sapiens)"
readout_label = "IC50"
measured = "≤ 50 nM"

[[record]]
compound = "[H][C@]1(c2n[nH]c(=O)c3ccccc32)C[C@]2(C[C@@H](NC(=O)c3ccc(NC=O)c(O)c3)C2)C1 (stereo partly drawn)"
target_system = "ROCK2 (Homo sapiens)"
readout_label = "IC50"
measured = "5.1 to 15 nM"

[[record]]
compound = "NC(=O)c1cccnc1O[C@H]1C[C@@]2(C[C@H](Nc3nc(-c4ccccc4)cs3)C2)C1 (stereo partly drawn)"
target_system = "ROCK2 (Homo sapiens)"
readout_label = "IC50"
measured = "96 nM"

[[record]]
compound = "COc1cc(-c2cn[nH]c2)ccc1C(=O)NC(C)c1c(F)cccc1Cl (stereo not drawn)"
target_system = "ROCK2 (Homo sapiens)"
readout_label = "IC50"
measured = "14.7 nM"

[[record]]
compound = "COc1cc(CN2C(=O)N(c3ccc(-c4cn[nH]c4)c(C)n3)CC2(C)C)ccc1F"
target_system = "ROCK2 (Homo sapiens)"
readout_label = "IC50"
measured = "2.1 to 20 nM"

[[record]]
compound = "COc1cc(N2CCC3(CCN(C(=O)c4ccc(N5CCNC5=O)cc4)CC3)C2=O)ccc1-c1cn[nH]c1"
target_system = "ROCK2 (Homo sapiens)"
readout_label = "IC50"
measured = "3.7 nM"

[[record]]
compound = "CC(C)CCN1C(=O)C(=O)N([C@H]2C[C@@]3(C[C@H](Oc4ncccc4C(N)=O)C3)C2)C1=O (stereo partly drawn)"
target_system = "ROCK2 (Homo sapiens)"
readout_label = "IC50"
measured = "968 nM"

[[record]]
compound = "Cn1cc(C(=O)Nc2cccc(-c3nc(Nc4ccc5[nH]ncc5c4)no3)c2)cn1"
target_system = "ROCK2 (Homo sapiens)"
readout_label = "IC50"
measured = "< 300 nM"

[[record]]
compound = "COc1cccc(CN2C(=O)N(c3ncc(-c4cn[nH]c4)c(OC)n3)CC23CCN(C(=O)C(C)C)CC3)c1"
target_system = "ROCK2 (Homo sapiens)"
readout_label = "IC50"
measured = "30 to 250 nM"

[[record]]
compound = "CCc1nn2cc(C(=O)NC3CC4(C3)CC(c3n[nH]c(=O)c5ccccc35)C4)nc2s1 (stereo not drawn)"
target_system = "ROCK2 (Homo sapiens)"
readout_label = "IC50"
measured = "5.1 to 15 nM"

